Test: Solubility at pH 6.8
Type: physicochemical
Conditions: pH 6.8, aqueous buffer, thermodynamic from solid; read-out: solubility
Source text: The physicochemical properties of relevance for the absorption of the compound, such as the solubility and the membrane permeability, especially at a pH close to neutral pH can be measured using the procedure as described by L. ZHOU et al. in JOURNAL OF PHARMACEUTICAL SCIENCES, VOL. 96, NO. 11, p. 3052-3071 (2007) for the solubility at pH 6.8 and the procedure as described by F. Wohnsland and B. Faller in Journal of Medicinal Chemistry Vol 44, p. […]
readout: solubility (µg/mL)

// solved cases for solubility follow
// Input: CCn1cc(-n2c(=O)n(C)c3cnc4ccc(-c5cnc(N)c(COC)c5)cc4c32)c(C)n1 [Example 168.2] . Output its solubility only.
24

// Input: CCN(C)c1ccc(-c2ccc3ncc4c(c3c2)n(-c2cn(C(C)C)nc2C)c(=O)n4C)cn1 [Example 98.2] . Output its solubility only.
75

// Input: Cc1nn(C)cc1-n1c(=O)n(C)c2cnc3ccc(-c4cnc(CO)c(OC(CF)CF)c4)cc3c21 [Example 192] . Output its solubility only.
27

(A) Cc1ncc(-c2ccc3ncc4c(c3c2)n(-c2cn(C)nc2C)c(=O)n4C)cc1N(C)S(C)(=O)=O [Example 75]
(B) Cc1nn(C)cc1-n1c(=O)n(C)c2cnc3ccc(-c4ccccn4)cc3c21 [Example 114]
(C) CCOc1ccc(-c2ccc3ncc4c(c3c2)n(-c2cn(C(C)C)nc2C)c(=O)n4C)cn1 [Example 3.7]
(D) CNc1cncc(-c2ccc3ncc4c(c3c2)n(-c2cn(C(C)C)nc2C)c(=O)n4C)c1 [Example 180.2]
Arrange these compounds by their solubility, starting with the largest number. Respond with an ordered listing of the labels, as requested.
B, A, D, C
(B: 61 µg/mL, A: 35 µg/mL, D: 10 µg/mL, C: 3 µg/mL)
